tested_on: PDE4B (Homo sapiens, UniProt Q07343)
Construct: PDE4B NG_029038: AA 152–484
Sequence (Q07343 324-656): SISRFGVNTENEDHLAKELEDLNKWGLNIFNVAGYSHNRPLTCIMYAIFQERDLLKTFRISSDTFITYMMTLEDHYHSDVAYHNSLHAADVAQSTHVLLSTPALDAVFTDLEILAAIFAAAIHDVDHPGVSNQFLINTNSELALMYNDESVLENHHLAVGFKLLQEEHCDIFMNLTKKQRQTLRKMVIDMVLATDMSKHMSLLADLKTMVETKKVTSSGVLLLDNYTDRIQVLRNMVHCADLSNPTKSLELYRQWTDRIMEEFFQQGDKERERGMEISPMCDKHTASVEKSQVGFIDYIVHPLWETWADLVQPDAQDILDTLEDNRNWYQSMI
test_method_notes: Recombinant PDE activity, scintillation proximity assay: PDE4B
condition_description: human recombinant active site fragment, substrate [3H]cAMP, means from n independent experiments; read-out: IC50 PDE4B2
Give IC50 for every item shown.
Give your result in nM as a bare value.

Note to self: IC50 of [O-][S+]1CCc2nc(N3CCC(c4ncc(Cl)cn4)CC3)nc(NC3(CO)CCC3)c21 (centres unmarked) with PDE4B (Homo sapiens, UniProt Q07343) was 10

Note to self: IC50 of O=C(Nc1c(Cl)c[n+]([O-])cc1Cl)c1ccc(OC(F)F)c(OCC2CC2)c1 [Roflu-N-Ox, roflumilast N-oxide, reference compound] with PDE4B (Homo sapiens, UniProt Q07343) was 1.4

---

System: Col1A1 mRNA expression
test_method_notes: TGF-β-induced Col1A1 mRNA expression in IPF lung fibroblasts (Taqman)
Format: cell-based, human
condition_description: IPF-LF, TGF-β 4 ng/mL, 48 h; read-out: IC50 TGF-β-induced Col1 mRNA expression
property_measured: pIC50
// pIC50 is dimensionless: -log10 of concentration (M)

get_value(item= [O-][S+]1CCc2nc(N3CCC(c4ncc(Cl)cn4)CC3)nc(NC3(CO)CCC3)c21 (stereo not shown) , readout=pIC50) returns 6.57

---

tested_on: PDE1C (Homo sapiens)
Construct: the full-length open reading frames of PDE1C; made in house; host or cells: SF9 insect cells (baculovirus, Bac-To-Bac, pFastbac)
Sequence (Q14123 whole entry): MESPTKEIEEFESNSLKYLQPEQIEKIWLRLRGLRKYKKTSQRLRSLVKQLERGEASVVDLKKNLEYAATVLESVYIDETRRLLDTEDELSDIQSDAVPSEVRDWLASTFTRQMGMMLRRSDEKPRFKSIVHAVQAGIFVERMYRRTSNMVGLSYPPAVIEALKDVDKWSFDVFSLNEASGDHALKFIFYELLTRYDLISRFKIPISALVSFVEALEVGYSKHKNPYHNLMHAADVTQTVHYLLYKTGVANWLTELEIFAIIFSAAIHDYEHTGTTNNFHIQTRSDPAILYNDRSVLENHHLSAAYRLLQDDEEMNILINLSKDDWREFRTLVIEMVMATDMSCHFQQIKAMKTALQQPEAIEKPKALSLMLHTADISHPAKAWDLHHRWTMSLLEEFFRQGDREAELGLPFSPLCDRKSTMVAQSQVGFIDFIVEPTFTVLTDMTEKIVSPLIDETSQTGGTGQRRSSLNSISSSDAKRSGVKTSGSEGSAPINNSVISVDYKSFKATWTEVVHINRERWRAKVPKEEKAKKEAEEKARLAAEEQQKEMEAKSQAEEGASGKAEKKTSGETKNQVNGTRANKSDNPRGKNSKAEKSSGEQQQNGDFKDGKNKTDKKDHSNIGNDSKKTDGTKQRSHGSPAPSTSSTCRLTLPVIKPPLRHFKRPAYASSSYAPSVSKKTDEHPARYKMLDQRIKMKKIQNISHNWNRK
test_method_notes: Recombinant PDE activity, scintillation proximity assay: PDE1C
Assay type: biochemical
condition_description: substrate cAMP
property_measured: IC50 (µM)
Give your result in µM as a bare value.

get_value(item= [O-][S+]1CCc2nc(N3CCC(c4ncc(Cl)cn4)CC3)nc(NC3(CO)CCC3)c21 (stereo not shown) , readout=IC50) returns 46

---

tested_on: PDE4A (Homo sapiens, UniProt P27815)
Construct: PDE4A (NG_029594, AA 156–886)
Sequence (P27815 156-886): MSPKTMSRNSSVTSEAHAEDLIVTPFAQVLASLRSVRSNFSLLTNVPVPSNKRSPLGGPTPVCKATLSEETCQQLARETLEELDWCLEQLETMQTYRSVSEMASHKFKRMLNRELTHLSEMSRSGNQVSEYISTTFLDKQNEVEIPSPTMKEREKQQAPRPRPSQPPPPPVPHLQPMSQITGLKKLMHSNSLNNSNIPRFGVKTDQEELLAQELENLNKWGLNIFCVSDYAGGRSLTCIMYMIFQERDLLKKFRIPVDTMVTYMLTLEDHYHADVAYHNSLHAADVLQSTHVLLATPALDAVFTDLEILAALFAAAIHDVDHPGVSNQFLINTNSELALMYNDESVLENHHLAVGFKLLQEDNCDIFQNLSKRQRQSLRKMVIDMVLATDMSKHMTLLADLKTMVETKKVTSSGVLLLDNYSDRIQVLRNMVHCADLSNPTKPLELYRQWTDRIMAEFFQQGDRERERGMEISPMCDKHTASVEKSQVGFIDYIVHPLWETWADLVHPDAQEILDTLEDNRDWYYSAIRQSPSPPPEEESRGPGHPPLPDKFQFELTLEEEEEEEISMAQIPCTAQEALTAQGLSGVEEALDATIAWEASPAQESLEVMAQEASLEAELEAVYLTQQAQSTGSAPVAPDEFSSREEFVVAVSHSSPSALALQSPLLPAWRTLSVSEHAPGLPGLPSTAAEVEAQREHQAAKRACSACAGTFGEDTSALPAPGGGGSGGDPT
test_method_notes: Recombinant PDE activity, scintillation proximity assay: PDE4A
condition_description: substrate [3H]cAMP, means from n independent experiments
Give pIC50 for every item shown.
// pIC50 is dimensionless: -log10 of concentration (M)

get_value(item= O=C(Nc1c(Cl)c[n+]([O-])cc1Cl)c1ccc(OC(F)F)c(OCC2CC2)c1 [Roflu-N-Ox, roflumilast N-oxide, reference compound] , readout=pIC50) returns 8.55

get_value(item= [O-][S+]1CCc2nc(N3CCC(c4ncc(Cl)cn4)CC3)nc(NC3(CO)CCC3)c21 (centres unmarked) [BI 1015550] , readout=pIC50) returns 6.61

---

tested_on: PDE4D (Homo sapiens)
Construct: PDE4D NG_027957, AA 79–438
Sequence (Q08499 381-740): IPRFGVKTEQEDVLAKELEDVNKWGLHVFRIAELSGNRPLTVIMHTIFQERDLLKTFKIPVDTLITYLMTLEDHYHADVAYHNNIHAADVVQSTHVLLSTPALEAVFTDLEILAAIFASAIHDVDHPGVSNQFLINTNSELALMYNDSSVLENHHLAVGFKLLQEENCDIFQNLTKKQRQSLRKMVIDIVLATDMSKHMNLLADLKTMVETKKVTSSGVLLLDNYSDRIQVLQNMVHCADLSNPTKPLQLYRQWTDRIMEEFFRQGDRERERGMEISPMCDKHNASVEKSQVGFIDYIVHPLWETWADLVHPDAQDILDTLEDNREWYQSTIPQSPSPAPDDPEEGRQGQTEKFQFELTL
test_method_notes: Recombinant PDE activity, scintillation proximity assay: PDE4D
condition_description: human recombinant active site fragment, substrate [3H]cAMP, means from n independent experiments; read-out: IC50 PDE4D2
property_measured: pIC50
// pIC50 is dimensionless: -log10 of concentration (M)

get_value(item= [O-][S+]1CCc2nc(N3CCC(c4ncc(Cl)cn4)CC3)nc(NC3(CO)CCC3)c21 (centres unmarked) , readout=pIC50) returns 7.04

get_value(item= O=C(Nc1c(Cl)c[n+]([O-])cc1Cl)c1ccc(OC(F)F)c(OCC2CC2)c1 [Roflu-N-Ox, roflumilast N-oxide, reference compound] , readout=pIC50) returns 8.85
